Experiment: Elimination half life in Sprague-Dawley rat at 2.5 mg/kg, iv
Assay type: ADME, organism-based
Design: dose 2.5 mg/kg, route intravenous
Conditions: in vivo, read-out: beta t1/2 (converted)
measure: half-life (h)

1. CCS(=O)(=O)Nc1cccc(-c2cc(=O)n(-c3ccc(Cl)c(Cl)c3)nc2C)c1 = 19.2

---

Experiment: Tmax in Sprague-Dawley rat at 2.5 mg/kg, po
Assay type: ADME, organism-based
Design: dose 2.5 mg/kg, route oral
Details: in vivo
measure: Tmax (h)

1. CCS(=O)(=O)Nc1cccc(-c2cc(=O)n(-c3ccc(Cl)c(Cl)c3)nc2C)c1 = 10.3
